Data credit: paper PMC7826789

For each of the molecules below, state its Percent Control.
- Test system: DAPK3
- Recorded Conditions: Compound Concentration (nM):1000;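 note: KINOMEscan scanMAX binding as percent activity remaining versus control; lower means stronger binding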
Answers are plain numbers, in %.

{"columns": ["Molecule", "Unit Text", "Percent Control"],
 "data": [
  ["Cl.O=C(Nc1ccc(Oc2ccc3[nH]c(NC(=O)c4ccco4)nc3c2)cc1)Nc1cc(C(F)(F)F)ccc1F [GW683134A]", "%", 89],
  ["COc1cccc(-c2c[nH]c3c(N/N=C/c4ccncc4)ncnc23)c1 [GW814408X]", "%", 100],
  ["O=C1Nc2ccc(C(=O)c3ccco3)cc2C1=Cc1cc(Cl)c(O)c(Cl)c1 [GW406108X]", "%", 10],
  ["CCS(=O)(=O)c1ccc(OC)c(Nc2ncc(-c3cccc(F)c3)o2)c1 [GW621970X]", "%", 100],
  ["NS(=O)(=O)c1ccc(N/N=C2\\C(=O)Nc3ccc(C(=O)NCc4ccncc4)cc32)cc1 [GW300657X]", "%", 51],
  ["COc1cc(/C=N/Nc2ncnc3[nH]ncc23)ccc1O [GW578748X]", "%", 48],
  ["CCn1c(-c2nonc2N)nc2c(C#CC(C)(C)O)nc(OCCNC)cc21.Cl [GSK949675]", "%", 100],
  ["COc1cc2ncnc(Nc3ccc4c(cnn4Cc4ccccc4)c3)c2cc1OC.Cl [GW282449A]", "%", 100],
  ["NS(=O)(=O)c1ccc(Nc2ncc(-c3ccccc3)o2)cc1 [GW572399X]", "%", 100],
  ["O=C(Nc1n[nH]c2nc(-c3ccc(O)cc3)c(Br)cc12)C1CC1 [SB-725317]", "%", 34]
]}

Please go through the list and note Percent Control for each molecule.
1. CC(C)COC(=O)c1ccc2c(c1)/C(=C/Nc1ccc(S(N)(=O)=O)cc1)C(=O)N2 [GW416981X]
2. COc1cc(C)c(N(C)C(=O)CN(C)C)cc1Nc1nc(Nc2cccc(F)c2C(N)=O)c2cc[nH]c2n1 [GSK2219385]
3. Cl.c1ccc(Cc2nc3ccc(Nc4ncnc5ccccc45)cc3[nH]2)cc1 [GR269666A]
4. Nc1ncnc2occ(-c3ccc(NC(=O)Nc4cc(C(F)(F)F)ccc4F)cc3)c12 [GW770249X]

9.8
71
96
98

Each molecule below has a recorded value; state its Percent Control.
1. COc1ccc2c(-c3ccnc(Nc4cccc(OC(F)(F)F)c4)n3)cnn2n1 [GW810372X]
2. C/C(Nc1ccc(S(N)(=O)=O)cc1)=C1/C(=O)Nc2ccccc21 [GW335962X]

1. 100
2. 96

----------
- System: PRKD1
- Recorded Conditions: Compound Concentration (nM):1000
Give measured Percent Control for each item. Keep answers brief.
Answers are plain numbers, in %.

Solved cases below.
{"columns": ["Compound", "Metric Name", "Unit Text", "Observed Value"],
 "data": [
  ["COc1cccc(-c2c[nH]c3c(N/N=C/c4ccncc4)ncnc23)c1 [GW814408X]", "Percent Control", "%", 100],
  ["CN(C)CCNC(=O)Nc1ccc(N(C)c2ccnc(Nc3ccc(CS(C)(=O)=O)cc3)n2)cc1.Cl [GW830900A]", "Percent Control", "%", 100],
  ["COc1ccccc1-c1cc(/C=C2\\C(=O)Nc3ncc(Br)cc32)cc(Br)c1O [GW442130X]", "Percent Control", "%", 83]
]}

Turning now to a further record.
Give the measured Percent Control for COc1cc2ncnc(Nc3ccc4c(cnn4Cc4ccccc4)c3)c2cc1OC.Cl [GW282449A]
100

----------
- Test system: CHEK2
- Recorded Conditions: Compound Concentration (nM):1000
Metric Name: Percent Control (%)
Give bare numbers, in %.

Examples from the recorded data:
{"columns": ["Compound", "Target Or Test System", "Unit Text", "Percent Control"],
 "data": [
  ["COc1ccccc1-c1cc(/C=C2\\C(=O)Nc3ncc(Br)cc32)cc(Br)c1O [GW442130X]", "CHEK2", "%", 79],
  ["COc1cccc(-c2c[nH]c3c(N/N=C/c4ccncc4)ncnc23)c1 [GW814408X]", "CHEK2", "%", 86]
]}

# per-item lookup of Percent Control; items listed below
1. CCS(=O)(=O)c1ccc(OC)c(Nc2ncc(-c3cccc(F)c3)o2)c1 [GW621970X]
2. Nc1ncnc2occ(-c3ccc(NC(=O)Nc4cc(C(F)(F)F)ccc4F)cc3)c12 [GW770249X]
3. CN(C)CCNC(=O)Nc1ccc(N(C)c2ccnc(Nc3ccc(CS(C)(=O)=O)cc3)n2)cc1.Cl [GW830900A]
4. COC(=O)Nc1nc2ccc(Oc3ccc(NC(=O)Nc4cc(C(F)(F)F)ccc4F)cc3)cc2s1.Cl [GW693917A]

1: 100; 2: 96; 3: 93; 4: 76

Look up Percent Control for the entries below, preserving their order.
1. NS(=O)(=O)c1ccc(N/N=C2\C(=O)Nc3ccc(-c4cnco4)cc32)cc1
2. NS(=O)(=O)c1ccc(N/N=C2\C(=O)Nc3ccc(Cl)cc32)cc1 [GW280670X]

1. 93
2. 100

----------
- System: BMX
- Recorded Conditions: Compound Concentration (nM):1000
Metric Name: Percent Control (%)
One number for each entry, in %.

Previously resolved entries follow.
{"columns": ["Molecule", "Target Or Test System", "Percent Control (%)"],
 "data": [
  ["COc1cc(C=NNc2ncnc3c2cnn3-c2ccccc2)ccc1O [GW513184X]", "BMX", 100],
  ["Cc1cc(O)cc(C)c1/C=C/c1cncc(C(N)=O)c1 [GW435821X]", "BMX", 100],
  ["CC(C)COC(=O)c1ccc2c(c1)/C(=C/Nc1ccc(S(N)(=O)=O)cc1)C(=O)N2 [GW416981X]", "BMX", 100],
  ["NS(=O)(=O)c1ccc(N/N=C2\\C(=O)Nc3ccc(-c4cnco4)cc32)cc1 [GW276655]", "BMX", 100]
]}

Look up Percent Control for the entries below, preserving their order.
1. COc1cccc(-c2c[nH]c3c(N/N=C/c4ccncc4)ncnc23)c1 [GW814408X]
2. Cl.O=C(Nc1ccc(Oc2ccc3[nH]c(NC(=O)c4ccco4)nc3c2)cc1)Nc1cc(C(F)(F)F)ccc1F [GW683134A]
3. COc1ccc2[nH]c3c4[nH]c5ccc(OC)cc5c4c4c(c3c2c1)C(=O)NC4=O [GW296115X]
4. CCn1c(-c2nonc2N)nc2c(C#CC(C)(C)O)nc(OCCNC)cc21.Cl [GSK949675]
5. COc1cc2ncnc(Nc3ccc4c(cnn4Cc4ccccc4)c3)c2cc1OC.Cl [GW282449A]
6. NS(=O)(=O)c1ccc(N/N=C2\C(=O)Nc3ccc(C(=O)NCc4ccncc4)cc32)cc1 [GW300657X]

[100, 87, 99, 100, 100, 100]

----------
- Test system: WNK4
- Recorded Conditions: Compound Concentration (nM):1000
Metric Name: Percent Control (%)
Give bare numbers, in %.

Completed entries (count: 3):
{"columns": ["Compound", "Target Or Test System", "Percent Control, %"],
 "data": [
  ["Cl.c1ccc(Cc2nc3ccc(Nc4ncnc5ccccc45)cc3[nH]2)cc1 [GR269666A]", "WNK4", 100],
  ["NS(=O)(=O)c1ccc(N/N=C2\\C(=O)Nc3ccc(C(=O)NCCc4c[nH]cn4)cc32)cc1 [GW300660X]", "WNK4", 100],
  ["Cl.O=C(O[C@H]1CN[C@H](C#Cc2cc3ncnc(Nc4ccc5c(cnn5Cc5ccccc5)c4)c3s2)C1)N1CCOCC1 [GSK200398A]", "WNK4", 95]
]}

The following compounds each have a reported value; give each one's Percent Control.
1. COc1ccc(COc2ccc(Cc3cnc(N)nc3N)cc2OC)cc1 [GW632580X]
2. COc1ccc2[nH]c3c4[nH]c5ccc(OC)cc5c4c4c(c3c2c1)C(=O)NC4=O [GW296115X]
3. COc1ccc2c(-c3ccnc(Nc4cccc(OC(F)(F)F)c4)n3)cnn2n1 [GW810372X]
4. CN1CCN(C(=O)c2ccc(NC(=O)Nc3ccc(N(C)c4ccnc(Nc5ccc(CS(C)(=O)=O)cc5)n4)cc3)cc2)CC1.Cl [GW830263A]
5. COc1cc(C)c(N(C)C(=O)CN(C)C)cc1Nc1nc(Nc2cccc(F)c2C(N)=O)c2cc[nH]c2n1

1. 82
2. 88
3. 100
4. 100
5. 81

// for each compound below, give its Percent Control
1. CCc1ccc(Oc2nccc(-c3c(-c4ccc(F)cc4)ncn3C3CCNCC3)n2)cc1
2. NS(=O)(=O)c1ccc(N/N=C2\C(=O)Nc3ccc(Cl)cc32)cc1 [GW280670X]
3. COc1cccc(-n2ncc3c(N/N=C/c4ccncc4)ncnc32)c1 [GW784752X]
4. COc1cccc(-c2c[nH]c3c(N/N=C/c4ccncc4)ncnc23)c1 [GW814408X]
5. COc1cc(N2CCN(C(C)C)CC2)ccc1Nc1nc(Nc2ccc(F)cc2C(=O)NC[C@@H](O)CO)c2cc[nH]c2n1 [GSK1392956A]

1. 67
2. 100
3. 100
4. 100
5. 69

Fill in Percent Control for each of the 7 compounds listed.
1. Cc1cc(O)cc(C)c1/C=C/c1cncc(C(N)=O)c1 [GW435821X]
2. Cl.O=C(Nc1ccc(Oc2ccc3[nH]c(NC(=O)c4ccccc4)nc3c2)cc1)Nc1cc(C(F)(F)F)ccc1F [GW709042A]
3. COc1ccccc1-c1cc(/C=C2\C(=O)Nc3ncc(Br)cc32)cc(Br)c1O [GW442130X]
4. CC(C)COC(=O)c1ccc2c(c1)/C(=C/Nc1ccc(S(N)(=O)=O)cc1)C(=O)N2 [GW416981X]
5. COC(=O)Nc1nc2ccc(Oc3ccc(NC(=O)Nc4cc(C(F)(F)F)ccc4F)cc3)cc2s1.Cl [GW693917A]
6. NS(=O)(=O)c1ccc(N/N=C2\C(=O)Nc3ccc(-c4cnco4)cc32)cc1
7. CC1=C(C(=O)Nc2ccc3[nH]ncc3c2)C(c2ccc3ccccc3c2)CC(=O)N1 (stereo not drawn) [GSK270822A]

1: 100; 2: 100; 3: 100; 4: 100; 5: 67; 6: 100; 7: 76

Answer for every listed entry: what is its Percent Control? The entries follow.
1. CN(C)c1cc2c(Nc3ccc4c(cnn4Cc4ccccc4)c3)ncnc2cn1 [GW282974X]
2. CN(C)CCNC(=O)Nc1ccc(N(C)c2ccnc(Nc3ccc(CS(C)(=O)=O)cc3)n2)cc1.Cl [GW830900A]
3. COc1cc(C=NNc2ncnc3c2cnn3-c2ccccc2)ccc1O [GW513184X]
4. CCS(=O)(=O)c1ccc(OC)c(Nc2ncc(-c3cccc(OC)c3)o2)c1 [GW580509X]

[91, 100, 100, 100]
